ASSAY_PROTOCOL: solvent given as SMILES
CONDITION_SUMMARY: in CCOC(C)=O
Please enter TRUE where absorption maximum is greater than or equal to 400 nm, and FALSE where it is lower.

Example cases with answers are listed next.
Q: Assess whether reported absorption maximum for CCN(CC)c1ccc2cc(/C=C/C(O)=C3\CC/C(=C\c4cc5ccc(N(CC)CC)cc5oc4=O)C3=O)c(=O)oc2c1 sits at 400 nm or higher.
A: TRUE

Q: Assess whether reported absorption maximum for COc1c(-c2ccc(N(C)C)cc2)oc2ccccc2c1=O sits at 400 nm or higher.
A: FALSE

Q: Assess whether reported absorption maximum for COc1ccc(-c2nc(C(C)=O)c(C)o2)cc1 sits at 400 nm or higher.
A: FALSE

Q: Assess whether reported absorption maximum for C#CCNC1=C2C(C)=CC(C)=[N+]2[B-](F)(F)n2c(C)cc(C)c21 sits at 400 nm or higher.
A: TRUE

New cases:
Q: Assess whether reported absorption maximum for COc1ccc(C#Cc2ccc(C#N)cc2)cc1 sits at 400 nm or higher.
A: FALSE

Q: Assess whether reported absorption maximum for COc1ccc2cc(-c3ccc(S(C)(=O)=O)cc3)oc(=O)c2c1 sits at 400 nm or higher.
A: FALSE

Q: Assess whether reported absorption maximum for CC1(C)CC(/C=C/c2ccc(N3CCOCCOCCOCCOCC3)cc2)=CC(=C(C#N)C#N)C1 sits at 400 nm or higher.
A: TRUE

Q: Assess whether reported absorption maximum for COC(=O)C(Cc1ccc2oc(-c3ccc(N(c4ccccc4)c4ccccc4)cc3)nc2c1)NC(=O)OC(C)(C)C (stereo not given) sits at 400 nm or higher.
A: FALSE

Q: Assess whether reported absorption maximum for CCOc1cc2c(cc1/C=C/C(=C(C#N)C#N)c1ccccc1)c1ccccc1n2CC sits at 400 nm or higher.
A: TRUE

###

ASSAY_PROTOCOL: solvent given as SMILES
CONDITION_SUMMARY: in CC#N
Param label: returns yes when absorption maximum < 400 nm, returns no otherwise, including exact equality.

Example cases with answers are listed next.
Q: Problem: For the molecule CCCC(=O)c1c2c(c(C(=O)CCC)c3c1OC(CC(=O)OC)(C(=O)O)O3)OCO2 , is absorption maximum under 400 nm?
A: no

Q: Problem: For the molecule CCC1=C(C)C2=C(C)c3c(C)c(CC)c(C)n3[B-](F)(F)[N+]2=C1C , is absorption maximum under 400 nm?
A: no

Q: Problem: For the molecule CCCCCCCCC1(CCCCCCCC)c2cc(-c3ccc(C(F)(F)F)cc3)ccc2-c2ccc(N(c3ccc(-n4c5ccccc5c5ccccc54)cc3)c3ccc4c(c3)C(CCCCCCCC)(CCCCCCCC)c3cc(-c5ccc(C(F)(F)F)cc5)ccc3-4)cc21 , is absorption maximum under 400 nm?
A: yes

Q: Problem: For the molecule CC1CCC(O)(c2ccc(-c3cccs3)s2)CC1 (stereo unspecified) , is absorption maximum under 400 nm?
A: yes

Q: Problem: For the molecule O=C1C2=C(O[B-](F)(F)[n+]3c2ccc2ccccc23)c2ccc(N3CCOCC3)c3cccc1c23 , is absorption maximum under 400 nm?
A: no

Q: Problem: For the molecule CCc1c(C)c2n(c1C)[B-](F)(F)[N+]1=C(NCc3ccc(OC)cc3)C(SC#N)=CC1=C2C , is absorption maximum under 400 nm?
A: no

Q: Problem: For the molecule CN(C)c1ccc(C(=O)c2ccccc2)cc1 , is absorption maximum under 400 nm?
A: yes

Q: Problem: For the molecule CCCCC1=Cc2c3ccc4cccc5ccc(c6cc(-c7ccc(N(c8ccccc8)c8ccccc8)cc7)n(c26)P1(=O)c1ccccc1)c3c45 (stereo unspecified) , is absorption maximum under 400 nm?
A: no

New cases:
Q: Problem: For the molecule c1cc2ccc3cccc4ccc(c1)c2c34 , is absorption maximum under 400 nm?
A: yes

###

ASSAY_PROTOCOL: solvent given as SMILES
CONDITION_SUMMARY: in Cc1ccccc1
ASSAY_ENDPOINT: absorption maximum (nm)
Provide only the numeric value, understood in nm.

Would you please look over these solved cases?
Q: Entry CC1(C)c2ccccc2N(c2ccc3c(c2)C2(c4cc(N5c6ccccc6C(C)(C)c6ccccc65)ccc4-3)c3ccccc3S(=O)(=O)c3ccccc32)c2ccccc21 : reported absorption maximum = ?
A: 364

Q: Entry CCCCCCCCCCCCn1cccc1/C=C/c1cc(OCCCC)c(/C=C/c2cccn2CCCCCCCCCCCC)cc1OCCCC : reported absorption maximum = ?
A: 411

Q: Entry COc1cc(OC)cc(-c2ccc(-c3ccc(C#N)s3)s2)c1 : reported absorption maximum = ?
A: 366

Now turn to the next compound.
Q: Entry Cc1cccc2[n+]1[B-](F)(F)n1c(c3cccc4cccc1c43)=N2 : reported absorption maximum = ?
A: 475

###

ASSAY_PROTOCOL: solvent given as SMILES
CONDITION_SUMMARY: in CCOC(C)=O
Listing of entries alongside the reported absorption maximum.
Provide only the numeric value, understood in nm.

Q: Entry CN(C)c1cccc2c1C(=O)c1ccccc1C2=O : reported absorption maximum = ?
A: 498

###

ASSAY_PROTOCOL: solvent given as SMILES
CONDITION_SUMMARY: in ClC(Cl)Cl
// thresholds for absorption maximum classes: class A: < 400 nm; class B: ≥ 400 nm and < 600 nm; class C: ≥ 600 nm

Q: Band for COC(=O)c1ccc(C2=C3C(C)=CC(C)=[N+]3[B-](F)(F)n3c(/C=C/c4c[nH]cn4)cc(C)c32)cc1 ?
A: class B

New cases:
Q: Band for O=S(=O)(c1cccc(N2c3ccccc3Oc3ccccc32)c1)c1cccc(N2c3ccccc3Oc3ccccc32)c1 ?
A: class A

Q: Band for COc1ccc(C2=c3sc(-c4ccc(OC)cc4)c(-c4ccc(OC)cc4)c3=[N+]3C2=Nc2c(-c4ccc(OC)cc4)c4sc(-c5ccc(OC)cc5)c(-c5ccc(OC)cc5)c4n2[B-]3(F)F)cc1 ?
A: class C

Q: Band for N#CC(C#N)=C(/C=C/c1cc2c3c(c1)CCCN3CCC2)c1ccc2c3c(cccc13)CC2 ?
A: class B

Q: Band for CCC(CC)n1c2ccccc2c2cc3c(cc21)c1ccccc1n3C(CC)CC ?
A: class B

###

Listing of entries alongside the reported absorption maximum.
ASSAY_PROTOCOL: solvent given as SMILES
CONDITION_SUMMARY: in C1CCOC1
Provide only the numeric value, understood in nm.

Would you please look over these solved cases?
Q: Entry F[B-]1(F)n2c(cc(-c3ccccc3)c2-c2ccccc2)C(c2ccccc2)=C2C=C(c3ccccc3)C(c3ccccc3)=[N+]21 : reported absorption maximum = ?
A: 586

Q: Entry O=C(/C=C/c1cn(-c2ccccc2)nc1-c1ccccc1)c1c(O)c2ccccc2oc1=O : reported absorption maximum = ?
A: 406

Q: Entry CN(C)c1ccc(/C=C/C(=O)O)cc1 : reported absorption maximum = ?
A: 358

Q: Entry CCN1\C(=C/C=C/C=C/C2=[N+](CC)c3ccc4ccccc4c3C2(C)C)C(C)(C)c2c1ccc1ccccc21 : reported absorption maximum = ?
A: 684

Now turn to the next compound.
Q: Entry CCn1c2ccccc2c2cc(-c3cc(-c4ccc5c(c4)c4ccccc4n5CC)nc(SC)n3)ccc21 : reported absorption maximum = ?
A: 371

###

ASSAY_PROTOCOL: solvent given as SMILES
CONDITION_SUMMARY: in ClCCl
Param label: returns Met when absorption maximum < 400 nm, returns Not met otherwise, including exact equality.

Q: Problem: For the compound Cc1c(C)c(-c2ccc(-c3cccnc3)cc2)c(C)c(C)c1B(c1c(C)c(C)c(-c2ccc(-c3cccnc3)cc2)c(C)c1C)c1c(C)c(C)c(-c2ccc(-c3cccnc3)cc2)c(C)c1C , is absorption maximum under 400 nm?
A: Met

New cases:
Q: Problem: For the compound CCCCCCn1c2cc(C=O)sc2c2sc3c(sc4c5sc(C=O)cc5n(CCCCCC)c43)c21 , is absorption maximum under 400 nm?
A: Not met

###

ASSAY_PROTOCOL: solvent given as SMILES
CONDITION_SUMMARY: in C1CCCCC1
Please enter true where absorption maximum is greater than or equal to 400 nm, and false where it is lower.

Q: Assess whether reported absorption maximum for C1=Cc2ccc3ccccc3c2N(c2ccccc2)B1c1ccccc1 sits at 400 nm or higher.
A: false

Q: Assess whether reported absorption maximum for COC(=O)[C@H](Cc1ccc2oc3c(c2c1)=CC1=C(c2ccc(OC)cc2)c2cc4c5cc(C[C@H](NC(=O)OC(C)(C)C)C(=O)OC)ccc5oc4n2[B-](F)(F)[N+]=31)NC(=O)OC(C)(C)C sits at 400 nm or higher.
A: true

Q: Assess whether reported absorption maximum for COc1ccc2c(c1)C(=O)c1ccccc1-2 sits at 400 nm or higher.
A: true

Okay, now this compound:
Q: Assess whether reported absorption maximum for C[Si](C)(C)C#Cc1ccc2c3cccc4cccc(c5cccc1c52)c43 sits at 400 nm or higher.
A: true
